measurementNotes: In vitro DMPK intrinsic clearance, rat
Format: in vitro ADME
measurementParameters: read-out: Intrinsic clearance rCLHEP
propertyMeasured: CLint scaled (mL/min/kg)
Answer with a number only, understood to be in mL/min/kg.

(Q) Look at this molecule and give its reported CLint scaled. Cc1cc(-c2cnc3cc(-c4ccc(N5CCNCC5)cc4)ccn23)c2cc(F)cc(F)c2n1
(A) 58.2

(Q) Look at this molecule and give its reported CLint scaled. Cc1cc(-c2cnc3cc(-c4ccc(N5CCNCC5)cc4)ccn23)c2cc(F)ccc2n1
(A) 58.9

(Q) Look at this molecule and give its reported CLint scaled. Cc1cc(-c2cnc3cc(-c4ccc(C5CCN(C(C)C)CC5)cc4)ccn23)c2cc(F)ccc2n1
(A) 14.5

(Q) Look at this molecule and give its reported CLint scaled. Cc1cc(-c2cnc3cc(-c4ccc(N5CCNCC5)cc4)ccn23)c2ccccc2n1
(A) 49.9

----------
measurementNotes: In vivo dose escalation, rat (oral)
measurementParameters: Dose 30 mg/Kg
Assignment: determine reported Tmax for the given molecules.

(Q) Look at this molecule and give its reported Tmax. Cc1cc(-c2cnc3cc(-c4ccc(N5CCNCC5)cc4)ccn23)c2ccccc2n1 [Compound 25]
(A) 5 h

(Q) Look at this molecule and give its reported Tmax. Cc1cc(-c2cnc3cc(-c4ccc(N5CCNCC5)cc4)ccn23)c2cc(F)cc(F)c2n1 [Compound 17]
(A) 5 h

----------
assayedSystem: BMPR2 (Homo sapiens)
Sequence (Q13873 27-1038): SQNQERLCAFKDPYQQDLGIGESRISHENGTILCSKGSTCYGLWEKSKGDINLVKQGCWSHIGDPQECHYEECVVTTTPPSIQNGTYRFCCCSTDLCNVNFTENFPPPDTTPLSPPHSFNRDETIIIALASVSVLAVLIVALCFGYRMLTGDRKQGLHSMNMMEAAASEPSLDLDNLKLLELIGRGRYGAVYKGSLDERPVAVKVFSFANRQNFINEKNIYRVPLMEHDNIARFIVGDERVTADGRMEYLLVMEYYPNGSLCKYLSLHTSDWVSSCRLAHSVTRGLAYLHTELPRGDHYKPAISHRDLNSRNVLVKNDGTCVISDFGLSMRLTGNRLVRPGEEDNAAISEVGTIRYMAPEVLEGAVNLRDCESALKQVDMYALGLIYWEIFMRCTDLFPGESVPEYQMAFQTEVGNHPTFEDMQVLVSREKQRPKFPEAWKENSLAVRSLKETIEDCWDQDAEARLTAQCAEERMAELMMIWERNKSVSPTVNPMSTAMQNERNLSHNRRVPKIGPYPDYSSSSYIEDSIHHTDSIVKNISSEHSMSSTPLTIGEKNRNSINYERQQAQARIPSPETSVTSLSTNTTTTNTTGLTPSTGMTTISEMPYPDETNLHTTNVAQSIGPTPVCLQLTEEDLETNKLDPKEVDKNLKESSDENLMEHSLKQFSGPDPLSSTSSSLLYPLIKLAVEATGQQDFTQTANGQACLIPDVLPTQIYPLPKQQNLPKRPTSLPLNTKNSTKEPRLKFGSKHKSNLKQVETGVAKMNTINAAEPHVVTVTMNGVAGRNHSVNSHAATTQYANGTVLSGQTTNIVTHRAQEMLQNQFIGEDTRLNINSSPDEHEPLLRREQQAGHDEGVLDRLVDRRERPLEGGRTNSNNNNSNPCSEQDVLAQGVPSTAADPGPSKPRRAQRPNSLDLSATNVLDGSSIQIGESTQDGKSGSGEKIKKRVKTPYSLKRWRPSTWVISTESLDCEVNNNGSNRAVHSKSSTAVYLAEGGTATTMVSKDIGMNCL
pKi: −log10 of the molar value.
propertyMeasured: pKi

(Q) Missing value: pKi, BMPR2 (Homo sapiens), entry COc1ccc2nc(C)cc(-c3cnc4cc(-c5ccc(N6CCN(C(C)=O)CC6)cc5)ccn34)c2c1 . Fill in?
(A) < 4.52

----------
measurementNotes: Plasma:Brain level study (PO and IV)
Assay type: in vivo
measurementParameters: 10 mg/kg; 5 h, PO
propertyMeasured: Brain (ng/g)
Answer with a number only, understood to be in ng/g.

(Q) Look at this compound and give its reported Brain. Cc1cc(-c2cnc3cc(-c4ccc(N5CCNCC5)cc4)ccn23)c2ccccc2n1 [Compound 25]
(A) 322

----------
Assignment: determine reported CLint scaled for the given compounds.
measurementNotes: In vitro DMPK intrinsic clearance, rat
Type: in vitro ADME
measurementParameters: read-out: Intrinsic clearance rCLINT
Answer with a number only, understood to be in mL/min/kg.

(Q) Look at this compound and give its reported CLint scaled. Cc1cc(-c2cnc3cc(-c4ccc(C5CCN(C(C)C)CC5)cc4)ccn23)c2cc(F)ccc2n1
(A) 18.2

(Q) Look at this compound and give its reported CLint scaled. Cc1cc(-c2cnc3cc(-c4ccc(N5CCNCC5)cc4)ccn23)c2cc(F)cc(F)c2n1
(A) 347

(Q) Look at this compound and give its reported CLint scaled. Cc1cc(-c2cnc3cc(-c4ccc(N5CCNCC5)cc4)ccn23)c2ccccc2n1
(A) 174

(Q) Look at this compound and give its reported CLint scaled. Cc1cc(-c2cnc3cc(-c4ccc(N5CCNCC5)cc4)ccn23)c2cc(F)ccc2n1
(A) 370

----------
measurementNotes: in vitro
measurementParameters: mouse, microsomes
propertyMeasured: half-life (min)
Answer with a number only, understood to be in min.

(Q) Look at this compound and give its reported half-life. Cc1cc(-c2cnc3cc(-c4ccc(N5CCNCC5)cc4)ccn23)c2cc(F)ccc2n1
(A) 37

(Q) Look at this compound and give its reported half-life. Cc1cc(-c2cnc3cc(-c4ccc(N5CCNCC5)cc4)ccn23)c2cc(F)cc(F)c2n1
(A) 44

(Q) Look at this compound and give its reported half-life. Cc1cc(-c2cnc3cc(-c4ccc(N5CCNCC5)cc4)ccn23)c2ccccc2n1
(A) 33

----------
measurementNotes: In vitro DMPK intrinsic clearance, human
Type: in vitro ADME
measurementParameters: read-out: Intrinsic clearance hCLINT
propertyMeasured: CLint scaled
Record the result as number plus unit.

(Q) Look at this compound and give its reported CLint scaled. Cc1cc(-c2cnc3cc(-c4ccc(C5CCN(C(C)C)CC5)cc4)ccn23)c2cc(F)ccc2n1
(A) 8.6 mL/min/kg

(Q) Look at this compound and give its reported CLint scaled. COc1ccc2nc(C)cc(-c3cnc4cc(-c5ccc(C6CCN(C)CC6)cc5)ccn34)c2c1
(A) 36.6 mL/min/kg

(Q) Look at this compound and give its reported CLint scaled. COc1ccc2nc(C)cc(-c3cnc4cc(-c5ccc(N6CCN(C(C)=O)CC6)cc5)ccn34)c2c1
(A) 294 mL/min/kg

----------
assayedSystem: ALK2 (Homo sapiens)
Sequence (Q04771 21-509, species assumed): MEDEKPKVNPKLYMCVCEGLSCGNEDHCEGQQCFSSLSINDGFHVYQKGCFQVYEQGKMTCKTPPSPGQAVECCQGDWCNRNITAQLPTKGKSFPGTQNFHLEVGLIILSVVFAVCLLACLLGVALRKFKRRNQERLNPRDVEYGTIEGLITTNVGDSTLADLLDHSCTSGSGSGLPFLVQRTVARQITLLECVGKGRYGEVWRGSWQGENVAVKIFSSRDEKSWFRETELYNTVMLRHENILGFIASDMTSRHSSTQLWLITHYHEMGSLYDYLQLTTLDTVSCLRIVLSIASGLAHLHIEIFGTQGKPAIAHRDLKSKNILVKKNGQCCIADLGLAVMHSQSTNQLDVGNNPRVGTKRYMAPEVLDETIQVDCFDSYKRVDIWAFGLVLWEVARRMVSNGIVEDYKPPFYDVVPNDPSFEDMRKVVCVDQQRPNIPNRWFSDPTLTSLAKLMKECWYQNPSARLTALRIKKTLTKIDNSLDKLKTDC
propertyMeasured: Ki (nM)
Answer with a number only, understood to be in nM.

(Q) Look at this molecule and give its reported Ki. Cc1cc(-c2cnc3cc(-c4ccc(C5CCN(C(C)C)CC5)cc4)ccn23)c2cc(F)ccc2n1
(A) 7.2

----------
assayedSystem: ALK3 (Homo sapiens)
Sequence (P36894 24-532, species assumed): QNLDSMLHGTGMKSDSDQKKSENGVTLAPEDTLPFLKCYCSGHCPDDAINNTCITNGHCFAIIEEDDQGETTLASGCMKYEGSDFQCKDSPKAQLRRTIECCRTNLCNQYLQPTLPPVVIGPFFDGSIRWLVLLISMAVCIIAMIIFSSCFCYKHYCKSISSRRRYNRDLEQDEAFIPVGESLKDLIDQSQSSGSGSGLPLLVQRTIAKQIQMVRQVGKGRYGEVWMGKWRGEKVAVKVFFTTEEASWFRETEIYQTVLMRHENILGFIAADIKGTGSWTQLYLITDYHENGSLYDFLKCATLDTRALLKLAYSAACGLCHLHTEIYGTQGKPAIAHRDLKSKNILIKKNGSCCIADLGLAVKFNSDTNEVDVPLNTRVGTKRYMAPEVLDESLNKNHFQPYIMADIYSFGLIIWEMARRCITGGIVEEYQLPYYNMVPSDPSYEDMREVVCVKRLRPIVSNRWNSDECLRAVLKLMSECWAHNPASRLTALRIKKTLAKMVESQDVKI
propertyMeasured: pKi
Would you please state pKi, meaning minus log10 of the concentration in mol/L, as a bare number?

(Q) Look at this compound and give its reported pKi. Cc1cc(-c2cnc3cc(-c4ccc(C5CCN(C(C)C)CC5)cc4)ccn23)c2cc(F)ccc2n1
(A) 7.46

----------
Assignment: determine reported microsomal CLint for the given molecules.
measurementNotes: in vitro
measurementParameters: mouse, microsomes
Answer with a number only, understood to be in µL/min/mg.

(Q) Look at this molecule and give its reported microsomal CLint. Cc1cc(-c2cnc3cc(-c4ccc(N5CCNCC5)cc4)ccn23)c2cc(F)ccc2n1
(A) 37

(Q) Look at this molecule and give its reported microsomal CLint. Cc1cc(-c2cnc3cc(-c4ccc(N5CCNCC5)cc4)ccn23)c2cc(F)cc(F)c2n1
(A) 33

(Q) Look at this molecule and give its reported microsomal CLint. Cc1cc(-c2cnc3cc(-c4ccc(N5CCNCC5)cc4)ccn23)c2ccccc2n1
(A) 42

----------
measurementNotes: In vivo discrete IV PK (0.5 mg/kg) crossover, rat
measurementParameters: IV 0.5 mg/kg
propertyMeasured: AUC(0-t) (ng·h/mL)
Answer with a number only, understood to be in ng·h/mL.

(Q) Look at this molecule and give its reported AUC(0-t). Cc1cc(-c2cnc3cc(-c4ccc(N5CCNCC5)cc4)ccn23)c2ccccc2n1 [Compound 25]
(A) 464

(Q) Look at this molecule and give its reported AUC(0-t). Cc1cc(-c2cnc3cc(-c4ccc(N5CCNCC5)cc4)ccn23)c2cc(F)ccc2n1 [Compound 20]
(A) 435

(Q) Look at this molecule and give its reported AUC(0-t). Cc1cc(-c2cnc3cc(-c4ccc(N5CCNCC5)cc4)ccn23)c2cc(F)cc(F)c2n1 [Compound 17]
(A) 456

----------
measurementNotes: in vitro
measurementParameters: dog, microsomes
propertyMeasured: half-life (min)
Answer with a number only, understood to be in min.

(Q) Look at this compound and give its reported half-life. Cc1cc(-c2cnc3cc(-c4ccc(N5CCNCC5)cc4)ccn23)c2ccccc2n1
(A) 11

(Q) Look at this compound and give its reported half-life. Cc1cc(-c2cnc3cc(-c4ccc(N5CCNCC5)cc4)ccn23)c2cc(F)ccc2n1
(A) 12

(Q) Look at this compound and give its reported half-life. Cc1cc(-c2cnc3cc(-c4ccc(N5CCNCC5)cc4)ccn23)c2cc(F)cc(F)c2n1
(A) 16
